System: COLO205
Assay: MTS cell proliferation assay, Table 6
Assay type: cell-based
Details: 10 μM, 72 h, relative to DMSO control
compounds and their reported Cell proliferation (%)
Enter your answer as a number in %; do not include the unit.

Observe how each entry below is paired with its result.
{"columns": ["compound", "Cell proliferation (%)"],
 "data": [
  ["Cc1ccc(-c2nnc(CSc3nnc(-c4ccncc4)n3-c3ccccc3Cl)o2)cc1", 53],
  ["Cc1ccc(-c2noc(CSc3nnc(-c4ccncc4)n3-c3ccccc3Cl)n2)cc1", 33],
  ["Oc1nc(-c2ccc(C(F)(F)F)cc2)nc2c1CSCC2 [XAV939, reference compound]", 116]
]}

Below: the item to evaluate.
Input: Cell proliferation (%) for O=C(Nc1cccc2cccnc12)c1ccc(N2C(=O)[C@@H]3[C@H](C2=O)[C@@H]2C=C[C@H]3C2)cc1 [IWR-1, reference compound] ?
Output: 55

----------
Each entry below carries its measured GI50, system: SW480 cells.

The cases that follow already have their GI50 on record.
{"columns": ["structureAsSmiles", "GI50"],
 "data": [
  ["Cc1ccc(-c2noc(CSc3nnc(-c4ccnc(O)c4)n3-c3ccccc3C)n2)cc1", "9 µM"],
  ["Cc1ccc(-c2noc(CSc3nnc(-c4ccncc4)n3-c3cccc(C)c3C)n2)cc1", "22 µM"],
  ["Cc1ccc(-c2noc(CSc3nnc(-c4ccncc4)n3-c3ccccc3F)n2)cc1", "8 µM"],
  ["Cc1ccc(-c2noc(CSc3nnc(-c4ccncc4)n3-c3ccccc3C)n2)cc1", "7.5 µM"],
  ["Cc1ccc(-c2noc(CSc3nnc(-c4ccncc4)n3-c3cccc(Cl)c3C)n2)cc1", "13.5 µM"]
]}

Consider now this further molecule.
Input: So what GI50 did `Cc1ccccc1-n1c(SCc2nc(-c3ccc(Cl)cc3)no2)nnc1-c1ccncc1` get with SW480 cells?
Output: < 5 µM

----------
Assay: Compound concentration in plasma and tumors of xenograft mice
Format: in vivo
Conditions: C.B-Igh-1b/IcrTac-Prkdc scid (CB17/SCID), mouse, plasma, intraperitoneal, 300 mg/kg, 300 mg/kg group, 24 h after last injection, day 29; read-out: concentration in plasma
readoutName: concentration at 24 h after the last injection (µg/mL)
Give just the number in µg/mL; leave the unit off.

Input: Entry `COc1ccc(-n2c(SCc3nc(-c4ccc(C)cc4)no3)nnc2-c2ccncc2)cc1` has what concentration at 24 h after the last injection?
Output: 1.3

----------
Assay: Compound concentration in plasma and tumors of xenograft mice
Format: in vivo
Details: C.B-Igh-1b/IcrTac-Prkdc scid (CB17/SCID), mouse, tumor, intraperitoneal, 150 mg/kg, 150 mg/kg cohort, 24 h after last injection, day 29; read-out: concentration in tumors, range
Description: Daily injections (200 μl, i.p.) followed (two day injection intermissions after every fifth injection day) until experiment end (29 days). […] The compound concentration in plasma and tumors was determined using an on-line and off-line Solid Phase Extraction-Capillary Liquid Chromatography (SPE-CapLC) instrumentation coupled to a Time of Flight (TOF) mass spectrometer, as previously described (Wilson, S. R. et al., J. Sep. Sci. 28: 1751-1758, 2005). […]
readoutName: concentration at 24 h after the last injection

Input: Look up concentration at 24 h after the last injection for this compound: COc1ccc(-n2c(SCc3nc(-c4ccc(C)cc4)no3)nnc2-c2ccncc2)cc1 [Compound 1]
Output: 1900 to 32900 ng/g

----------
Test: Compound concentration in plasma and tumors of xenograft mice
Format: in vivo
Conditions: C.B-Igh-1b/IcrTac-Prkdc scid (CB17/SCID), mouse, plasma, intraperitoneal, 150 mg/kg, 150 mg/kg group, 24 h after last injection, day 29; read-out: concentration in plasma
readoutName: concentration at 24 h after the last injection
Hey, just the number and the unit after it is fine.

Input: // lookup concentration at 24 h after the last injection for `COc1ccc(-n2c(SCc3nc(-c4ccc(C)cc4)no3)nnc2-c2ccncc2)cc1`
Output: 1.3 µg/mL

----------
Cell proliferation (%): recorded values
Tested on: HCT-8
Experiment: MTS cell proliferation assay, Table 6
Type: cell-based
Settings: 10 μM, 72 h, relative to DMSO control
Text: Control cell lines used were HeLa cells (cell growth not controlled by canonical Wnt signalling) and colorectal cancer cell lines LS174T and HCT116 (with mutant β-catenin N-terminal phosphorylation sites). […] The quantity of reduced MTS product (as measured by the absorbance at 490 nm) is directly proportional to the number of living cells in the culture and thus allows a direct comparison of cell proliferation in each case. […]
Provide the reading as a plain figure in %.

{"columns": ["compound", "tgt", "Cell proliferation (%)"],
 "data": [
  ["Cc1ccc(-c2nnc(CSc3nnc(-c4ccncc4)n3-c3ccccc3Cl)o2)cc1", "HCT-8", 51],
  ["O=C(Nc1cccc2cccnc12)c1ccc(N2C(=O)[C@@H]3[C@H](C2=O)[C@@H]2C=C[C@H]3C2)cc1 [IWR-1, reference compound]", "HCT-8", 70],
  ["Cc1ccc(-c2noc(CSc3nnc(-c4ccncc4)n3-c3ccccc3Cl)n2)cc1", "HCT-8", 69]
]}

The record that follows has no Cell proliferation (%) shown yet.
Input: Look up Cell proliferation (%): Oc1nc(-c2ccc(C(F)(F)F)cc2)nc2c1CSCC2 [XAV939, reference compound]
Output: 105

----------
Tested on: LiCl-induced activation of canonical Wnt signaling
Test: LiCl-induced ST-Luc reporter assay in HEK293 cells
Assay type: cell-based
Conditions: Homo sapiens; HEK293, 25 mM LiCl, 24 h; read-out: IC50, antagonism of LiCl-induced activation of canonical Wnt signaling
readoutName: pIC50
Units for pIC50: none; it is -log10 of a concentration expressed in mol/L.

Input: Lab note: need pIC50 for COc1ccc(-n2c(SCc3nc(-c4ccc(C)cc4)no3)nnc2-c2ccncc2)cc1 [Compound 1] on LiCl-induced activation of canonical Wnt signaling, anyone have it?
Output: 6.38

----------
Assay: Compound concentration in plasma and tumors of xenograft mice
Type: in vivo
Details: C.B-Igh-1b/IcrTac-Prkdc scid (CB17/SCID), mouse, tumor, intraperitoneal, 300 mg/kg, 300 mg/kg cohort, 24 h after last injection, day 29; read-out: concentration in tumors, range
readoutName: concentration at 24 h after the last injection

Input: Value lookup for concentration at 24 h after the last injection; key = `COc1ccc(-n2c(SCc3nc(-c4ccc(C)cc4)no3)nnc2-c2ccncc2)cc1`
Output: 900 to 4900 ng/g

----------
System: SW480 cells
Assay: MTS cell growth assay (Example 27)
Format: cell-based
Conditions: Homo sapiens, 72 h, read-out: IC50, reduction of proliferation
Protocol: Thus, the effect of compound No. 1 on cell growth was tested in SW480 cell lines using MTS analysis (MTS is the colorimetric substrate 3-(4,5-dimethylthiazol-2-yl)-5-(3-carboxymethoxyphenyl)-2-(4-sulfophenyl)-2H-tetrazolium). 3000 cells were seeded on 96 well plates in quadruplicates for each sample. The following day, cell culture medium was mixed with compound No. 1 in various concentrations or with 0.5% DMSO vehicle (control) and added to the wells. […] Samples were measured after 72 hours. […]
readoutName: IC50

Input: Data request, read-out IC50, for `COc1ccc(-n2c(SCc3nc(-c4ccc(C)cc4)no3)nnc2-c2ccncc2)cc1`
Output: ~11.5 µM

----------
Reported Cell proliferation (%) is given for each of the following molecules.
Test system: SW480
Assay: MTS cell proliferation assay, Table 6
Type: cell-based
Conditions: 10 μM, 72 h, relative to DMSO control
Reply with just the number (in %).

{"columns": ["molecule", "tgt", "Cell proliferation (%)"],
 "data": [
  ["Oc1nc(-c2ccc(C(F)(F)F)cc2)nc2c1CSCC2 [XAV939, reference compound]", "SW480", 103],
  ["O=C(Nc1cccc2cccnc12)c1ccc(N2C(=O)[C@@H]3[C@H](C2=O)[C@@H]2C=C[C@H]3C2)cc1 [IWR-1, reference compound]", "SW480", 62],
  ["Cc1ccc(-c2noc(CSc3nnc(-c4ccncc4)n3-c3ccccc3Cl)n2)cc1 [compound 43]", "SW480", 51]
]}

Next molecule, please.
Input: So what Cell proliferation (%) did Cc1ccc(-c2nnc(CSc3nnc(-c4ccncc4)n3-c3ccccc3Cl)o2)cc1 [compound 60] get with SW480?
Output: 59

----------
# Lookup of reported GI50 keyed by entry
Test system: SW480 cells

Input: For `COc1ccc(-n2c(NCc3nc(-c4ccc(C)cc4)no3)nnc2-c2ccncc2)cc1` , what is its reported GI50?
Output: > 25 µM

Input: // lookup GI50 for `COc1ccc(-n2c(SCc3nnc(-c4ccccc4)o3)nnc2-c2ccncc2)cc1`
Output: > 25 µM

Input: Look up GI50 for this compound: `COc1ccc(-n2c(SCC(C)(C)c3nc(-c4ccc(C)cc4)no3)nnc2-c2ccncc2)cc1`
Output: > 25 µM

Each recorded value in this set is attributed to patent US8883827B2.
